System: Bacillus subtilis DB104 (SP-AmyQ fusion secretion)
ASSAY_NAME: AmyQ secretion efficiency, weighted average sort bin (1 = best secretion, 10 = worst) (bin number (weighted average, 1-10)); higher = lower secretion efficiency
MEASURED_PARAMETER: AmyQ secretion efficiency
Could you respond with only the numeric value?

MKKKLAAGLTASAIVGTTLVVTPAEAATD ... 2.88

Any idea what AmyQ secretion efficiency was measured for `MRFTKFTFIMITVVGFLSVLGLAAVFPLTAQAEKA` ?
1.81

Item: `MRPVFPLILSAVLFLSCFFGARQTESSASKR`
3.91

Item: `MHLIRAAGAVCLAVVLIAGCRFNEDQAEGENT`
5.78

Item: `MKKVGLLAGCLAAGGFSYNAFATEN`
6.86

Item: `MKKVLMAFIICLSLILSGLAAPPSGAKAESV`
2.28

Item: `MLKRTSFVSSLFISSAVLLSILLPSGQGHAQSA`
1.31

Item: `MPYLKRVLLLLVTGLFMSLFAVTATISAQTG`
1.51

Item: `MRPVFPLILSAVLFLSCFFGARQTEASRSKR`
2.45

Item: `MLKKKWMVKKKRRCKAAGGFSYNAFATEN`
7.54

Item: `MKSKGSIMACLILFSFTITTFINTETGSAFSN`
5.58

Item: `MKNMSCKLVVSVTLFFSFLTIGPLAHPQNS`
5.55

Item: `MKVLLSALLLLLFAFEPSNSGKKL`
6.02

Item: `MPVLLSALLLLLFAFEPSASGKKL`
6.19

Item: `MHLIRAKGAVCLAVVLIAGCRFNEDQHQAEGENT`
6.02

Item: `MILTKVLTGSVLSLGLLVSASPAFATSP`
1.75

Item: `MRHKIITFILAVVVIIIIGNMIGGGGGSEAEDD`
6.34

Item: `MRKKRVITCVMAASLTLGPAGYATAKED`
2.6

====

System: Bacillus subtilis DB104 (SP-AmyQ fusion secretion)
ASSAY_NAME: AmyQ secretion efficiency, weighted average sort bin (1 = best secretion, 10 = worst) (bin number (weighted average, 1-10)); higher = lower secretion efficiency
MEASURED_PARAMETER: AmyQ secretion efficiency
Could you respond with only the numeric value?

Some sequences with recorded AmyQ secretion efficiency:
MNFKKTVVSALSISALALEEEGVASAHEI ... 7.3
MGGVFPLILSAVLFLSCFFGARQTEASASKR ... 4.03
MKKKLAAGLTASAIVGTTLVVTPEEAATI ... 5.83
MRSYIKVLTMCFLGLILFVPTKLADNS ... 5.85
MKKVLMAFIICLSLILSVLAAPPSGEKAESV ... 6.63
MNFKKTVVSALSISALALSVSGVVSAHEI ... 2.69

Any idea what AmyQ secretion efficiency was measured for `MKLSVKIAGVLTVAAAAMTAKMYATEKGN` ?
4.74

Item: `MMTKSKLLLSCLALSTVFVATTIANAPTH`
5.2

Item: `MRKTIFAFLTGLMMFKKRTAASASPD`
6.93

Item: `MFMKSGMEQAVSVLLLLSRLPVQASLTSE`
9.96

Item: `MGLGKKLSVAVAASFMSLSISLDEEDDEVQAAEG`
1.62

Item: `MLKKIALTLCPAIVGSLLFFTAPASEHVS`
6.03

Item: `MGMKKKLSLGVASAALGLALVGKKRTWAAFN`
8.1

Item: `MTKRGIQAFAGGIILATAVLAAVFKKTKKDQAAAV`
7.92

Item: `MRGKSAVLLSLIMLIAGFLISFNFQM`
6.3

Item: `MKKLRKKKKKGLLTVSIASPSFAAEK`
7.52

Item: `MKKKQVMLRKKKAAGLGLTALHSAPAAKAAPL`
7.14

Item: MIQKRKRTVSFRLVLMCTLLFVSLPITKTSAVNG [wt_amyQ]
1.16

Item: `MKKKQVMLALTAAAGLGLTALHSAPAAKADDD`
5.2

====

Tested on: Bacillus subtilis DB104 (SP-AmyQ fusion secretion)
ASSAY_NAME: AmyQ secretion efficiency, weighted average sort bin (1 = best secretion, 10 = worst) (bin number (weighted average, 1-10)); higher = lower secretion efficiency
MEASURED_PARAMETER: AmyQ secretion efficiency
Could you respond with only the numeric value?

Some sequences with recorded AmyQ secretion efficiency:
MKRKLLSSLAISALSLGLLVSAPTASFAATR ... 2.21
MRPVFPLILSAVLFLSCFFGARQTEASPSKR ... 2.1
MKLWMRKTLVVLFTIVTFGLKKRPAALMADKP ... 6.91
MKKRKRRNFKRFIAAFLVLALMISLVPADKLAKST ... 4.89
MKKWLRRAVSLAIAIVLFMYTKGEAKAAGM ... 2.72
MTKLKMLSMLTVMIASLFIFSSQGLAVQY ... 2.52
MTKLKMLSMLTVMIASLFIFSSQALDVQY ... 6.18
MAIIIAIIAAVIVIAALITFNVRNDSPG ... 6.52

Any idea what AmyQ secretion efficiency was measured for `MKKKKYVVLVLSIAGIGGFSVHAASS` ?
6.5

Item: `MKWMCSICCAAVLLAGGAAQGEAV`
3.2

Item: `MKKKLAAGLTASAIVGTTLVVTPDEAATI`
5.54

Item: `MNKFLKSNFRFLLAAALGISLLKRSNFIKASND`
6.59

Item: `MKKTIMSFVAVAALSTTAFGAHASAATK`
3.57

Item: `MKKKQVMLKRKKKKGLGLTALHSAPAAKAAPL`
8.05

Item: `MKKRLIGFLVLVPALIMSGITLIEANPY`
7.07

Item: `MRKNRRGKQGTLSLGLLSFMVTPVSAASK`
7.32

Item: `MRPVFPLILSAVLFLSCFFAATVFFASASKR`
7

Item: `MSKAAAVLLSLGLVFGFSYGAGHVAEAKTK`
2.88

====

Test system: Bacillus subtilis DB104 (SP-AmyQ fusion secretion)
ASSAY_NAME: AmyQ secretion efficiency, weighted average sort bin (1 = best secretion, 10 = worst) (bin number (weighted average, 1-10)); higher = lower secretion efficiency
MEASURED_PARAMETER: AmyQ secretion efficiency
Could you respond with only the numeric value?

Some sequences with recorded AmyQ secretion efficiency:
MKSKGSIMACLILFSFTITTFINTETISNFSN ... 7.44
MKLKKRVSMFLVALTMCGGLFVTAAKAVKT ... 4.92
MKKERGGTYVLCLSLSPLVSTNEVFAATT ... 8.09
MKKVLMAFIICLSLILSVLAAPPSGAKLESV ... 8.94
MGLGKKLSVAVAASFMSLSISLPGVQRAEG ... 2.64

Any idea what AmyQ secretion efficiency was measured for `MKKIWIGMLAAAVLLLSVFAMVPKVSLADAA` ?
4.61

Item: `MNKFLKSNFRFKRAAALGISLLASSNFIKASND`
3.29

Item: `MKLRKVLTGSVLSLVSASPAFATSP`
3.59

====

Test system: Bacillus subtilis DB104 (SP-AmyQ fusion secretion)
ASSAY_NAME: AmyQ secretion efficiency, weighted average sort bin (1 = best secretion, 10 = worst) (bin number (weighted average, 1-10)); higher = lower secretion efficiency
MEASURED_PARAMETER: AmyQ secretion efficiency
Could you respond with only the numeric value?

MKKWRKRLIIAVSLAIAIVLFMYTKGEAKAAGM ... 3.1

Okay, next one:
Any idea what AmyQ secretion efficiency was measured for `MTKIGLLFMLCLAALFTIGFPAQQADAAEA` ?
3.42

====

Each record here notes measured AmyQ secretion efficiency.
Test system: Bacillus subtilis DB104 (SP-AmyQ fusion secretion)
ASSAY_NAME: AmyQ secretion efficiency, weighted average sort bin (1 = best secretion, 10 = worst) (bin number (weighted average, 1-10)); higher = lower secretion efficiency
Could you respond with only the numeric value?

MRFTKVVGFLSVLGLAAVFPLTCQAEKA ... 2.19

Any idea what AmyQ secretion efficiency was measured for `MRNLTKTSLLLAGLCTAAQMVFVTHASLEES` ?
3.72

Item: `MLCVMMLLFSAIASFPVSIQAKDQ`
6.18

Item: `MKRLFMKGSLVLFAVVFVFAVKGAPAKAETH`
3.72

Item: `MKKWKQTQQSGIAAAISIFVYVSTGSEK`
7.55

Item: `MLKKKWMVGLLAGCLAAGGFSYNEFATEN`
6.42

Item: `MKIRKILLSSALSFGMLISAVPALARKR`
5.61

====

System: Bacillus subtilis DB104 (SP-AmyQ fusion secretion)
ASSAY_NAME: AmyQ secretion efficiency, weighted average sort bin (1 = best secretion, 10 = worst) (bin number (weighted average, 1-10)); higher = lower secretion efficiency
Each record here notes measured AmyQ secretion efficiency.
Could you respond with only the numeric value?

Some sequences with recorded AmyQ secretion efficiency:
MRPVFPLILSAVLFLSCFSTSVAITVTFGARQTEASASKR ... 3.9
MKRMIVRMTLPLLIVCLAFSSFSASAPVGARAASE ... 2.02
MMLSVKIAGVLTVAAAAMTAKMYATAKGN ... 5.4
MHLIRAAGAVCLAVVLIAGCRFNEDQHQFFAEGENT ... 4.63
MKKRLIAPMLLSAASLAFFAMSGSNQAAAY ... 3.88
MKKWMITIAMLILAGIALFVFISPSKSHKT ... 6.65
MKKAKRVSALTPSTTLAITAKAKEL ... 7.61
MKKWMITIAMLILAGIALFVFISPNKSHKT ... 5.8
MKRIRIPMTLALSAALIIALLSFASAEEN ... 5.6
MRKSLITLGLASVIGTSSFLIPFTKASAETL ... 2.6

Okay, next one:
Any idea what AmyQ secretion efficiency was measured for `MRKKCSVCLWILVLLLSCKRGKSAYAATS` ?
6.83
